Ref: patent US20240116985A1

Item-by-item account of Solubility
- procedure details: Solubility in PBS
- Assay type: physicochemical
measure name: Solubility

{"compound": "CC(=O)N1CCC[C@]12CC=CCCCC1(CCCC=CCCCOC(=O)N3CC[C@@](C(=O)N[C@@H](Cc4ccccc4)C(=O)N[C@@H](Cc4ccc5ccccc5c4)C(=O)N[C@@H](CCC(N)=O)C(N)=O)(C3)NC(=O)[C@H](CC(C)C)NC(=O)[C@H](Cc3ccccc3)NC(=O)[C@H](C)NC(=O)[C@H](CCCCNC(C)C)NC(=O)[C@H]([C@@H](C)O)NC(=O)[C@H](CC(=O)O)NC1=O)NC(=O)[C@H](C)NC(=O)[C@H](CC(N)=O)NC2=O (stereo partly drawn)", "measure name": "Solubility", "measured": "10 µM"}
{"compound": "CC(=O)N1CCC[C@]12CC=CCCCC1(CCCC=CCCCCCC[C@@](C)(C(=O)N[C@@H](Cc3ccccc3)C(=O)N[C@@H](Cc3csc4ccccc34)C(=O)N[C@@H](CCC(N)=O)C(N)=O)NC(=O)[C@H]([C@@H](C)O)NC(=O)[C@H](Cc3ccccc3)NC(=O)[C@H](C)NC(=O)[C@H](C)NC(=O)[C@H](CCC(=O)O)NC(=O)[C@H](CC(=O)O)NC1=O)NC(=O)[C@H](CC(C)C)NC(=O)[C@H](CC(=O)O)NC2=O (stereo partly drawn) [I-623]", "measure name": "Solubility", "measured": "44 µM"}
{"compound": "COCCOCCC(=O)NCCCC[C@@H]1NC(=O)[C@H](C)NC(=O)[C@H](CC(=O)O)NC(=O)[C@H](CC(=O)O)NC(=O)C2(CCCC=CCCCOC(=O)N3CC[C@@](C(=O)N[C@@H](Cc4ccsc4)C(=O)N[C@@H](Cc4csc5ccccc45)C(=O)N[C@@H](CCC(N)=O)C(N)=O)(C3)NC(=O)[C@H](CC(N)=O)NC(=O)[C@H](Cc3ccccc3)NC1=O)CCCC=CC[C@]1(CCCN1C(C)=O)C(=O)N[C@@H](CC(=O)O)C(=O)N[C@@H](CC(C)(C)C)C(=O)N2 (stereo partly drawn)", "measure name": "Solubility", "measured": "33 µM"}
